Collected pIC50 values appear next to each entry.
target: EGFR wt. (Homo sapiens (Human), UniProt P00533); assay: HTRF enzyme assay, wild-type EGFR; conditions: recombinant enzyme
Sequence (P00533 25-1210): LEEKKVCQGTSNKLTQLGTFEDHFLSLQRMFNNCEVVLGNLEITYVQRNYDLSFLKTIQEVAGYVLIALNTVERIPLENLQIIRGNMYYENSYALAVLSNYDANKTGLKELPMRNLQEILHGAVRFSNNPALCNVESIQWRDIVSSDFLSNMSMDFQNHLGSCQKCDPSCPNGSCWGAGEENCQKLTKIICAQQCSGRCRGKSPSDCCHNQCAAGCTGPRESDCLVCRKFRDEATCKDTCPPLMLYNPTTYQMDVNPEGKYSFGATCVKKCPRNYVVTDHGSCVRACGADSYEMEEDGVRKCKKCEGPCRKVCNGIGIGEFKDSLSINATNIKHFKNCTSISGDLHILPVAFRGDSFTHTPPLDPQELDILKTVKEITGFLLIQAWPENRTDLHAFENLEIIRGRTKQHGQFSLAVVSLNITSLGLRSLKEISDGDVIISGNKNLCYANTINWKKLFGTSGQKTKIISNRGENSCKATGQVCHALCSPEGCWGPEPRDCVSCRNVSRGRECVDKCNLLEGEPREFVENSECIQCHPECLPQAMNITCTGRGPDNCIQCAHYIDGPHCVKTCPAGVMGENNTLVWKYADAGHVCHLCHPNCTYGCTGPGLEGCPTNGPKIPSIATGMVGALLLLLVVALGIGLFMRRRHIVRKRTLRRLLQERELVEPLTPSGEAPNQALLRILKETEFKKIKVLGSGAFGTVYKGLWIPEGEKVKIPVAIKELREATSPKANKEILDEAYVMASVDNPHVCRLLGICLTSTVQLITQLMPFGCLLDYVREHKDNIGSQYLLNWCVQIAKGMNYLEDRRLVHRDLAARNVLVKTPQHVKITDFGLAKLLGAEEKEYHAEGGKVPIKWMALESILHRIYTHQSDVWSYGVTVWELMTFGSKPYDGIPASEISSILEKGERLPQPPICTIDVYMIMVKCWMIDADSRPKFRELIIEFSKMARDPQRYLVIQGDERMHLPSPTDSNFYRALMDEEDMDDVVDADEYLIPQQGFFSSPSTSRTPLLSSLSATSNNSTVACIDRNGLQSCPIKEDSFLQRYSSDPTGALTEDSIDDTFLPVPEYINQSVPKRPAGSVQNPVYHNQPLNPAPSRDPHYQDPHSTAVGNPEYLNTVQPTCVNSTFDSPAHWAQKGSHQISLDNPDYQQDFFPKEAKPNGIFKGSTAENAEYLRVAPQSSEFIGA
Scale: pIC50 equals -log10([C]), with [C] in mol/L.

Below: 5 compounds and their reported pIC50.
COc1cc(C2CCNCC2)ccc1Nc1ncc(Br)c(Nc2ccccc2NS(C)(=O)=O)n1 [Example 3]; 6.08
COc1cc(C2CCN(C)CC2)ccc1Nc1ncc(Cl)c(Nc2ccccc2NS(C)(=O)=O)n1 [Example 12]; 5.92
COc1cc(N2CCC(N3CCN(C(C)=O)CC3)CC2)ccc1Nc1ncc(Cl)c(Nc2ccccc2NS(C)(=O)=O)n1 [Example 19]; 6.15
COc1cc(C2CCN(C3CCN(C(C)=O)CC3)CC2)ccc1Nc1ncc(Cl)c(Nc2ccccc2NS(C)(=O)=O)n1 [Example 18]; 6.01
COc1cc(C2CCNCC2)c(C)cc1Nc1ncc(Cl)c(Nc2ccccc2NS(C)(=O)=O)n1 [Example 2]; 6.14

Would you kindly look at the next entry?
Record request: pIC50 value, item COc1cc(N2CCOCC2)ccc1Nc1ncc(Cl)c(Nc2ccccc2NS(C)(=O)=O)n1 [Example 32]
5.89

###

Molecular target: EGFR del19/T790M/C797S (Homo sapiens, UniProt P00533, C797S/DEL746-750/T790M)
Sequence (P00533 with tags, fused parts or gaps C797S/DEL746-750/T790M limits assumed): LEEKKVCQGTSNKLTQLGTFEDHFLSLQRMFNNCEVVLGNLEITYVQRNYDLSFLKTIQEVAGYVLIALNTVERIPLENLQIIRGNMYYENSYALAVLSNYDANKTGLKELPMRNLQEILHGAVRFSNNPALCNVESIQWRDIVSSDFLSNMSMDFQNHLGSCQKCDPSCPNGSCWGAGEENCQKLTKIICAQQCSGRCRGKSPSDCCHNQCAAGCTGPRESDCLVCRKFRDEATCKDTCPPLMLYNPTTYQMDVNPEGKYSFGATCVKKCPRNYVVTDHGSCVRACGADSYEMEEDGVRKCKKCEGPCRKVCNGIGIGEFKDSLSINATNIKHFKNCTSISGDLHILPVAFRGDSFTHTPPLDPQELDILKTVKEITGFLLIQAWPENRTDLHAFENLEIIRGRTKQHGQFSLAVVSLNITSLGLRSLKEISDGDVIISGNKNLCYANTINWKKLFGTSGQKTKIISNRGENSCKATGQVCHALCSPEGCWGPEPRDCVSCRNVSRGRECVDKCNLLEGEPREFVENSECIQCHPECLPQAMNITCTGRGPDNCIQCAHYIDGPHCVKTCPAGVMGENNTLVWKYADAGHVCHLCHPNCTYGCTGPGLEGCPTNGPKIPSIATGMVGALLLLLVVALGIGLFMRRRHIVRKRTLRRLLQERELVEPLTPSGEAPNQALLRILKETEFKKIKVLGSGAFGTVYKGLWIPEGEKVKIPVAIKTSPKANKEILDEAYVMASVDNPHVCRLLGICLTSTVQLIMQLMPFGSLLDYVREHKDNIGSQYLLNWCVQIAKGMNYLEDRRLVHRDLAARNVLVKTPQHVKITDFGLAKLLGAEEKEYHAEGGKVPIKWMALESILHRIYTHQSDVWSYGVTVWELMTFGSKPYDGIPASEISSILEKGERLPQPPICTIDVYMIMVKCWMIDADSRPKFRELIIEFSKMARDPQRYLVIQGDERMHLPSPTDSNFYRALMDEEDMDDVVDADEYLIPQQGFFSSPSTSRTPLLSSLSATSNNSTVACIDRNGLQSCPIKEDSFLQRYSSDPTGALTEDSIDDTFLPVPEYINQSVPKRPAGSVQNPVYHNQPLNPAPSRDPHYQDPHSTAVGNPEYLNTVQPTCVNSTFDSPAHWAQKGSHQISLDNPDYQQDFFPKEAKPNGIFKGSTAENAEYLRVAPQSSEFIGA
Assay: HTRF enzyme assay, EGFR del19/T790M/C797S
Format: biochemical
Settings: HTRF, recombinant enzyme; read-out: EGFR del19/T790M/C797S IC50
Description: The measurement of an activity on wild-type and EGFR mutation enzyme of the compound of the present invention was experimented by utilizing the HTRF system sold by Cisbio, as follow. The composition of the assay buffer used in the activity measurement was 50 mM Tris-HCl pH 7.5, 100 mM NaCl, 7.5 mM MgCl2, 3 mM KCl, 0.01% Tween 20, 0.1% BSA, 1 mM DTT. […]
Collected pIC50 values appear next to each entry.
Scale: pIC50 equals -log10([C]), with [C] in mol/L.

COc1cc(N2CCN(C3CCN(C)CC3)CC2)ccc1Nc1ncc(Cl)c(Nc2ccccc2NS(C)(=O)=O)n1 [Example 25]; 8.05
COc1cc(N2CCN(C)CC2)ccc1Nc1ncc(Cl)c(Nc2ccccc2NS(C)(=O)=O)n1 [Example 28]; 8.05
COc1cc(C2CCN(C3CCN(C)CC3)CC2)ccc1Nc1ncc(Cl)c(Nc2ccccc2NS(C)(=O)=O)n1 [Example 17]; 7.92

Record request: pIC50 value, item COc1cc(N2CCNCC2)ccc1Nc1ncc(Cl)c(Nc2ccccc2NS(N)(=O)=O)n1 [Example 29]
8.15

Record request: pIC50 value, item COc1cc(N2CCOCC2)ccc1Nc1ncc(Cl)c(Nc2ccccc2NS(C)(=O)=O)n1 [Example 32]
7.85

###

Collected IC50 values appear next to each entry.
target: EGFR del19 (Homo sapiens (Human), UniProt P00533, DEL746-750); experiment: HTRF enzyme assay, EGFR del19; conditions: recombinant enzyme
Sequence (P00533 other isoform, or with tags, fused parts or gaps del 1-668/del 746-750 limits assumed): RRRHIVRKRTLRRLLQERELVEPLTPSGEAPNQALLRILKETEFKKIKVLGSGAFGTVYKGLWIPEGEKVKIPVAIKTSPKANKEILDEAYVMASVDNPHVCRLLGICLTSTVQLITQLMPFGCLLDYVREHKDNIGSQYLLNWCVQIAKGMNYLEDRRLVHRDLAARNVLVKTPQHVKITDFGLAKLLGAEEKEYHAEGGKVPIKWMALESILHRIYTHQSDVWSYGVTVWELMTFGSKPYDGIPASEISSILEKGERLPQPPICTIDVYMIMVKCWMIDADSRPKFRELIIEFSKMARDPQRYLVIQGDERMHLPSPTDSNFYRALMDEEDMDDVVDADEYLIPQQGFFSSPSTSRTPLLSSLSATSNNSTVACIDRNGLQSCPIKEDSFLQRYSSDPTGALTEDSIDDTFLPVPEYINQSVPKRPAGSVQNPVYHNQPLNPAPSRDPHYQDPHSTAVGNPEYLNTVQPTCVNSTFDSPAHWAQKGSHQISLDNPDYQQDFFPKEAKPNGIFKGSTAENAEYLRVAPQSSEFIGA
Please respond with the number in pM and leave the unit unwritten.

Below: 2 compounds and their reported IC50.
COc1cc(N2CCC(N3CCN(C)CC3)CC2)ccc1Nc1ncc(Cl)c(Nc2ccccc2NS(C)(=O)=O)n1; 700
COc1cc(N2CCNCC2)ccc1Nc1ncc(Cl)c(Nc2ccccc2NS(C)(=O)=O)n1; 25000

Record request: IC50 value, item COc1cc(N2CCC(N3CCN(CCO)CC3)CC2)ccc1Nc1ncc(Cl)c(Nc2ccccc2NS(C)(=O)=O)n1
400

###

test system: Ba/F3 EGFR del19/T790M/C797S cell line; experiment: CellTiter-Glo cell viability, Ba/F3 EGFR del19/T790M/C797S; format: cell-based; settings: CellTiter-Glo, 72 hours, read-out: Ba/F3 EGFR del19/T790M/C797S IC50
Collected pIC50 values appear next to each entry.
Scale: pIC50 equals -log10([C]), with [C] in mol/L.

Below: 2 compounds and their reported pIC50.
COc1cc(C2CCN(C3CCN(CCO)CC3)CC2)ccc1Nc1ncc(Cl)c(Nc2ccccc2NS(C)(=O)=O)n1; 6.96
COc1cc(C2CCN(C3CCN(C)CC3)CC2)ccc1Nc1ncc(Cl)c(Nc2ccccc2NS(C)(=O)=O)n1; 6.17

Would you kindly look at the next entry?
Record request: pIC50 value, item COc1cc(N2CCC(N3CCOCC3)CC2)ccc1Nc1ncc(Cl)c(Nc2ccccc2NS(C)(=O)=O)n1
6.80
